System: P. falciparum stage V gametocytes
Design: BacTiter-Glo ATP luminescence viability of purified stage V gametocytes in 384-well plates, per cent inhibition versus DMSO
Conditions: 48 h, 5 µM; inhibitor
The whole screen tested about 13,000 compounds, of which about 3,200 (25%) showed an effect of 50% or more. This is one part of the list.
Think of 20% as a floor: if % Inhibition stands on it or above, it is Met; beneath it, Not met.

Please review the entries below; each comes with its answer.
# molecule, cat
rows = [
    ("CCCCNCc1ccc(-c2nc(CN(C(=O)Nc3cc([N+](=O)[O-])ccc3F)C3Cc4ccccc4C3)cs2)cc1 [TCMDC-141640]", "Met"),
    ("COc1ccc2nccc([C@@H](O)CN3CCC(NC(=O)C(c4ccccc4C)N4CCC(Cc5ccccc5)CC4)CC3)c2c1 (some centres unmarked) [TCMDC-141102]", "Not met"),
    ("O=C(Nc1cc(Cl)ccc1O)c1cnn2c(C(F)(F)F)cc(-c3cccs3)nc12 [TCMDC-125807]", "Not met"),
]

Exercise: Quick check, % Inhibition >= 20%? CCOC(=O)CCCc1cc(NC2CCN(C)CC2)nc(Nc2ccc(C)cc2)n1 [TCMDC-134016]
Key: Not met

Exercise: Quick check, % Inhibition >= 20%? CC(C)(C)OC(=O)N1CCN(c2ccccc2NC(=O)c2cccc(C(F)(F)F)c2Oc2ccc(F)cc2)CC1 [TCMDC-140951]
Key: Not met

Exercise: Quick check, % Inhibition >= 20%? O=C(Nc1ccccc1F)N(CCCn1ccnc1)Cc1csc(-c2ccc(CNCc3ccccc3)cc2)n1 [TCMDC-141643]
Key: Met

Exercise: Quick check, % Inhibition >= 20%? COc1ccc(C2c3ccccc3-c3nc(N)nc(N)c3C2C)cc1 (centres unmarked) [TCMDC-137992]
Key: Met

Exercise: Quick check, % Inhibition >= 20%? CC(CN(C)C)C(=O)Nc1ccc(-c2ccc(-c3nc4ccccc4[nH]3)cc2)cc1 (centres unmarked) [TCMDC-137108]
Key: Met

###

% Inhibition: recorded values
System: P. falciparum stage V gametocytes
Set-up: BacTiter-Glo ATP luminescence viability of purified stage V gametocytes in 384-well plates, per cent inhibition versus DMSO
Details: 48 h, 5 µM; inhibitor
Among all 13,000 compounds or so, about 3,200 (25%) showed an effect of 50% or more. This is one part of the list.
Write the numeric value and append its unit.

Please review the following examples before continuing.
# compound, meas.value
data = [
    ("Cc1nnsc1C(=O)Nc1cccc(-c2cccc(-c3nc4ccc(C(F)(F)F)cc4[nH]3)c2)c1 [TCMDC-137084]", "-5.727%"),
    ("COc1cc(OC)c2c(c1Cl)O[C@]1(C2=O)C(=O)C(Cc2ccccc2)(Cc2ccccc2)C(=O)C[C@H]1C [TCMDC-131804]", "9.09%"),
    ("O=C1C(c2ccccc2)=C(Nc2ccc(Cl)cc2)c2ccccc21 [TCMDC-125493]", "32.25%"),
]

Exercise: What value of % Inhibition has been recorded for this entry: COc1ccc(NC2=C(c3ccccc3)C(=O)c3ccccc32)cn1 [TCMDC-125501]
Key: 36.53%

Exercise: What value of % Inhibition has been recorded for this entry: O=C1C(c2ccccc2)=C(Nc2ccc([N+](=O)[O-])cc2)c2ccccc21 [TCMDC-125490]
Key: 10.18%

Exercise: What value of % Inhibition has been recorded for this entry: Cc1csc(-c2nc(NCCc3c(C)noc3C)ncc2-c2ccsc2)n1 [TCMDC-125354]
Key: 34.89%

Exercise: What value of % Inhibition has been recorded for this entry: Cc1cc(CN2CCCC(OC(c3ccc(F)cc3)c3ccc(F)cc3)C2)ccc1O (centres unmarked) [TCMDC-136168]
Key: 43.13%

Exercise: What value of % Inhibition has been recorded for this entry: NC(=O)c1cccc(C(=O)Nc2cccc(-c3cccc(-c4nc5ccc(F)cc5[nH]4)c3)c2)c1 [TCMDC-132198]
Key: -10.48%
